Biological target: T1, recombinant human IL-6 (human, UniProt P05231 30-212)
T1 construct: Bought protein
T1 sequence (P05231 30-212 limits assumed): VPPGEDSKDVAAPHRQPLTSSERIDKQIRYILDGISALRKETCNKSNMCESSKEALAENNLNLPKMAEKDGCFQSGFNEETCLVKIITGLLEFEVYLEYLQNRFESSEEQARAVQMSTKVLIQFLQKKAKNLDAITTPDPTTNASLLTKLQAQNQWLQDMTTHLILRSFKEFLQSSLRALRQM
Assay: SPR Biacore, purified Ab on Protein A chip, IL-6 analyte, 37 C
measured_attribute: koff

Study these solved cases before continuing.
>  <binder>
anti-IL-6 antibody, heavy chain variant I (M34I, G66D, I108V) / light chain variant III (M32L, M50D, N52S, M88Q) (antibody, human IgG1, V domains shown, also called M34I, G66D, I108V/ M32L, M50D, N52S, M88Q; I/III) VH: EVQLVESGGGLVQPGGSLRLSCAASGFTFSPFAISWVRQAPGKGLEWVAKISPGGSWTYYSDTVTDRFTFSLDTSKSTAYLQMNSLRAEDTAVYYCARQLWGYYALDVWGQGTLVTVSS VL: DIQLTQSPSSLSASVGDRVTITCSASISVSYLYWYQQKPGKAPKLLIYDDSSLASGVPSRFSGSGSGTDFTLTISSLQPEDFATYYCQQWSGYPYTFGQGTKVEIK

>  <koff>
0.000702 s⁻¹

$$$$
>  <binder>
anti-IL-6 antibody, light chain M88V (heavy chain WT) (antibody, V domains shown, See note of m2; also called WT / M88V) VH: EVQLVESGGGLVQPGGSLRLSCAASGFTFSPFAMSWVRQAPGKGLEWVAKISPGGSWTYYSDTVTGRFTFSLDTSKSTAYLQMNSLRAEDTAVYYCARQLWGYYALDIWGQGTLVTVSS VL: DIQLTQSPSSLSASVGDRVTITCSASISVSYMYWYQQKPGKAPKLLIYDMSNLASGVPSRFSGSGSGTDFTLTISSLQPEDFATYYCVQWSGYPYTFGQGTKVEIK

>  <koff>
0.000441 s⁻¹

$$$$

Now for another entry.
In: What value of koff has been recorded for this entry: anti-IL-6 antibody, light chain T96V (heavy chain WT) (antibody, V domains shown, See note of m2; also called WT / T96V) VH: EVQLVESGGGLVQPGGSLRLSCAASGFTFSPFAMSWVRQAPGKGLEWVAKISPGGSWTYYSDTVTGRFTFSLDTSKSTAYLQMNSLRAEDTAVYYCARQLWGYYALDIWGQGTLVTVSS VL: DIQLTQSPSSLSASVGDRVTITCSASISVSYMYWYQQKPGKAPKLLIYDMSNLASGVPSRFSGSGSGTDFTLTISSLQPEDFATYYCMQWSGYPYVFGQGTKVEIK
Out: 0.000639 s⁻¹

Reference source for all entries: patent US20240209076A1
